Entries and their %Inh
# Test system: PRKG1
# applied conditions: concentration: 1 μM, replicates: in singlicate; n = 1;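 also: KINOMEscan kinase panel screen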
Number in %, nothing else.

> print(dat)
                                     smiles  target.of.assay  measured.endpoint  display.unit  measurement
1  Nc1nccc2scc(-c3ccc4c(c3)CCN4C(=O)Cc3cc(F)ccc3F)c12            PRKG1               %Inh             %            9

Continue with the next compound.
Could you tell me which %Inh is on file for `N#Cc1ccc(Oc2ccc(Nc3ncnc4cc[nH]c34)cc2Cl)cc1` ?
0

----------
# Tested on: TRKB
# applied conditions: concentration: 1 μM, replicates: in singlicate; n = 1
measured endpoint: %Inh (%)
Number in %, nothing else.

Worked set:
> print(dat)
                                     smiles  measured.endpoint  display.unit  measurement
1  Cl.c1ccc(Cn2ccc3cc(Nc4ncnc5ccccc45)ccc32)cc1               %Inh             %            0
2  CS(=O)(=O)CCNCc1ccc(-c2ccc3ncnc(Nc4ccc(OCc5ccccc5)c(Cl)c4)c3c2)o1.Cl               %Inh             %            0
3  COc1ccc(NC(=O)c2ccc(-c3cc(-c4nnc(C)o4)ccc3C)cc2)cc1               %Inh             %           17
4  CN1c2ccc(-c3ccc(C(=O)NCCO)cc3)cc2-c2[nH]ncc2S1(=O)=O               %Inh             %            0
5  COC(=O)c1c(-c2ccccc2)c2cc(Cl)ccc2c(=O)n1Cc1ccc(S(C)(=O)=O)cc1               %Inh             %            0
6  N#Cc1ccc(Oc2ccc(Nc3ncnc4cc[nH]c34)cc2Cl)cc1               %Inh             %            0

Param readout= %Inh; system= TRKB; entry= `Nc1nc(-c2cccnc2)c(-c2ccnc3ccccc23)s1` ; returns value.
39

Param readout= %Inh; system= TRKB; entry= `c1ccc(-c2ccc3c(-c4ccnc(Nc5ccc6c(c5)OCCO6)n4)cnn3n2)cc1` ; returns value.
0

Param readout= %Inh; system= TRKB; entry= `Cc1ccc(C)c(NC(=O)NCCNc2ccnc(Nc3ccc(F)cc3)n2)c1` ; returns value.
0

----------
Entries and their %Inh
# Tested on: GSK3A
# applied conditions: concentration: 1 μM, replicates: in singlicate; n = 1
Number in %, nothing else.

Could you tell me which %Inh is on file for `Nc1nc(-c2ccc3c(N)n[nH]c3c2)cc(N2CCCCC2)n1` ?
0

Could you tell me which %Inh is on file for `Cn1cc(-c2ccc3c(c2)CCN3C(=O)Cc2cccc(C(F)(F)F)c2)c2c(N)ncnc21` ?
0

Could you tell me which %Inh is on file for `Nc1nccc2scc(-c3ccc4c(c3)CCN4C(=O)Cc3cc(F)ccc3F)c12` ?
17

Could you tell me which %Inh is on file for `c1ccc(-c2ccc3c(-c4ccnc(Nc5ccc6c(c5)OCCO6)n4)cnn3n2)cc1` ?
12

Could you tell me which %Inh is on file for `CCc1nc(-c2cccc(C)c2)c(-c2ccnc(NC(=O)c3ccccc3)c2)s1` ?
0

Could you tell me which %Inh is on file for `C[C@@H]1CCN(C(=O)CO)C[C@@H]1N(C)c1ncnc2[nH]ccc12` ?
0

Could you tell me which %Inh is on file for `COC(=O)c1cccc(NC(=O)NCCNc2ccnc(Nc3ccc(F)cc3)n2)c1` ?
19

Could you tell me which %Inh is on file for `FC(F)(F)c1ccc(-c2nn3ncccc3c2-c2ccnc(Nc3cccc(C(F)(F)F)c3)n2)cc1` ?
1

Could you tell me which %Inh is on file for `Cl.c1ccc(Cn2ccc3cc(Nc4ncnc5ccccc45)ccc32)cc1` ?
11
